# Test system: MOLT-4 leukemia
# ASSAY NOTES: NCI-60 one-dose screen, 48 h (100 = growth as untreated, 0 = no growth, -100 = all killed)
# MEASUREMENT PARAMETERS: 10 µM unless noted
Compounds without any hit were thinned out: in the full panel of roughly 83,000, 20% have a hit.
Label rule, in plain words: growth of 90% and up is true, under 90% is false.

Field: example entries. Status: answers known.
• O=[N+]([O-])c1ccc2scc3c4ccccc4nc-3c2c1 = false
• CC1(C)C=Cc2c(ccc3c2[N+]([O-])=C2C3=C[C@@]34NC(=O)[C@]5(CCCN5C3=O)C[C@@H]4C2(C)C)O1 = false
• C[C@]12CCc3sc(Nc4ccc(O)cc4)nc3C1=CC[C@@H]1[C@@H]2CC[C@]2(C)C(=O)CC[C@@H]12 = false
• CCCCOC(N)=O = true
• N#CCCc1ccccc1 = true
• O=[P+](O)c1cccnc1 = true
• CC1=CC(=O)CCC12CCOC2=O (configuration not stated) = true
• CC[C@H](C)[C@H](NC(=O)[C@H]1CCCCN1C)C(=O)N(C)[C@H](C[C@@H](OC(C)=O)c1nc(C(=O)NC23C4C5C2C2C3C4C52C(=O)OC)cs1)C(C)C (some centres not stated) = false
• C[C@]12CCC(=O)C[C@@H]1CC[C@@H]1[C@@H]2CC[C@]2(C)[C@@H](OC(=O)N(CCCl)N=O)CC[C@@H]12 = false
• CCOP(=O)(OCC)C(=O)N(CC)CC = true

Next, consider the following compound.
Answer whether growth of O=C(NC1=NCC[Se]1)c1ccccc1O is greater than or equal to 90%. false

====

# System: MALME-3M melanoma
# ASSAY NOTES: NCI-60 one-dose screen, 48 h (100 = growth as untreated, 0 = no growth, -100 = all killed)
# MEASUREMENT PARAMETERS: 10 µM unless noted
Compounds without any hit were thinned out: in the full panel of roughly 83,000, 20% have a hit.
Would you kindly list growth for each of these molecules?
Numbers only, in %.

Use the examples below as a reference point.
• CO[C@H]1[C@H](O[C@@H]2C[C@@H]3C/C=C/C(=O)O[C@@H](CO)C[C@H](O)[C@@H]4C[C@H](C)[C@H](C/C=C\C=C\[C@H](C)C[C@H](C2)O3)O4)O[C@@H](C)[C@H](O)[C@H]1O = 85.5
• CCC(=O)C(CC(C)N1CCCCCC1)(c1ccccc1)c1ccccc1 (centres undefined) = 93.6
• C[C@]12CC[C@H]3[C@@H](CC=C4c5nc(N)sc5CC[C@@]43C)[C@@H]1CC[C@@H]2O = 107

Okay, next one:
Measured growth, CCOP(=O)(OCC)C(=O)N(CC)CC : 108

====

# Test system: T-47D breast
# ASSAY NOTES: NCI-60 one-dose screen, 48 h
# MEASUREMENT PARAMETERS: 10 µM unless noted
# Procedure: Growth inhibition of the T-47D human tumor cell line is measured as a screen for anti-cancer activity. Cells are grown in 96 well plates and exposed to the test compound for 48 hours. Compounds are tested at a single concentration, which is 10^-5 M for most compounds. The reported endpoint is percent growth (GI% or GIPRCNT), where numbers from 0 - 100% represent growth inhibition, and numbers from -100% - 0 represent cell death. For example, a value of 40 represents 60% growth inhibition. […]
The panel holds about 83,000 compounds, 20% with a hit somewhere; the sample as a whole holds those more often. Active and inactive are the calls of the source. Rule for the calls: active = growth percent below 10; inactive = the rest.
Hello, when you answer, please use one of the following outcomes: active, inactive

Field: example entries. Status: answers known.
* Cc1ccc(S(=O)(=O)n2cc([C@@]3(O)C[C@H](CSC#N)OC3=O)c3ccccc32)cc1 | inactive
* CCCN1C(=O)NC(=O)C(CC)(N2C(=O)c3c(F)c(F)c(F)c(F)c3C2=O)C1=O (stereo unspecified) | active
* O=C(Cc1ccccc1)c1ccccc1 | inactive
* C=C[Se]CC(=O)/C=C/c1ccccc1 | inactive

Given N#CCC(=O)c1ccccc1 , state the outcome it received in this test. inactive

Given O=C=Nc1ccc(Br)cc1 , state the outcome it received in this test. inactive
